Measurement Notes: NCI Yeast Anticancer Drug Screen. Data for the bub3 strain (AID 167)
Test Parameters: S. cerevisiae bub3 mutant strain, at 50.0 µM (retest, dose inferred, filed as 5.0)
Compounds without any hit were thinned out: in the full panel of roughly 79,000, 15% have a hit. Active and inactive are the calls of the source. Rule as the data show it: active = growth inhibition above about 70%; inactive = the rest.
Field 'call' accepts active, inactive

Molecule	Cat
COC(=O)c1ccc(OCCC(=O)CCl)cc1	inactive
O=C(O)C1C(c2ccccc2)=C1c1ccccc1	inactive
CC12CC(O)C3C(CCC4CCCCC43C)C1CC/C2=N/O (configuration not stated)	inactive
CC(=O)O[C@@H]1[C@@H](O)[C@H]2O[C@@H]3C=C(C)CC[C@]3(CO)[C@]1(C)[C@@]21CO1	active
O=S(=O)(O)c1ccc(N=Nc2ccc3c(S(=O)(=O)O)cccc3c2O)c2ccccc12	inactive
CCCC(C1=C(O)CC(C)CC1=O)C1=C(O)CC(C)CC1=O (configuration not stated)	inactive

[ask] I'd appreciate the recorded outcome for `COC(=O)c1nnn(-c2ccc(S(N)(=O)=O)cc2)c1C(=O)c1ccc(Cl)c(Cl)c1` from this test.
[reply] active

[ask] I'd appreciate the recorded outcome for COC(=O)C1(NC(=O)C(CC(=O)OCc2ccccc2)NC(=O)OCc2ccccc2)CCCCCC1 (configuration not stated) from this test.
[reply] inactive

[ask] I'd appreciate the recorded outcome for OC(C1CCC=NN1C(O)(C(F)(F)F)C(F)(F)F)(C(F)(F)F)C(F)(F)F (configuration not stated) from this test.
[reply] active

[ask] I'd appreciate the recorded outcome for `CN(C)C(=S)Oc1ccc(C(C)(C)C)cc1` from this test.
[reply] inactive

[ask] I'd appreciate the recorded outcome for `COc1cc(O)c2c(=O)c3cccc(C)c3[nH]c2c1` from this test.
[reply] inactive

[ask] I'd appreciate the recorded outcome for CC(=O)C1C(=O)C=C(C)OC1=O (configuration not stated) from this test.
[reply] inactive

[ask] I'd appreciate the recorded outcome for `CCCCCCCCCCCCOCC[N+](CCO)(CCO)Cc1ccccc1` from this test.
[reply] active

[ask] I'd appreciate the recorded outcome for `COc1cc(Nc2ccc(O)cc2)c2ncccc2c1` from this test.
[reply] active
